Cited source: ChEMBL document CHEMBL4425140

biological target: Histone-arginine methyltransferase CARM1 (Homo sapiens); experiment: Inhibition of full-length Halo-tagged human CARM1 (1 to 608 residues) expressed in 293-F cells at 50 uM using [3H]-SAM and biotinylated histone peptides by scintillation proximity based radiometric assay; type: cell-based
Active and inactive are the calls of the source. The rule behind the calls is not given here.
measured endpoint: inhibition

C[C@H](N)C(=O)NCc1cccnc1N(C)Cc1ccccc1 :: Active
C[C@H](N)C(=O)NCc1cccnc1Oc1ccc(F)cc1F :: Active
CN(CCN)Cc1ccccc1 :: Active
CNCCN1CCCC1 :: Active
CC(Cc1c[nH]c2ccccc12)NC(=O)CN (stereo not drawn) :: Active
NCCN1CCC(c2nnc(Cn3ccnc3)n2C2CC2)CC1 :: Active
CC(N)C(=O)NCc1ccccc1 (stereo not drawn) :: Active
CNCCNC1CCN(c2cccc(-c3ccnc(C)n3)c2)CC1 :: Active

---

molecular target: Protein arginine N-methyltransferase 6 (Homo sapiens, UniProt Q96LA8); assay: Inhibition of PRMT6 (unknown origin); conditions: read-out: IC50
Sequence (Q96LA8 whole entry): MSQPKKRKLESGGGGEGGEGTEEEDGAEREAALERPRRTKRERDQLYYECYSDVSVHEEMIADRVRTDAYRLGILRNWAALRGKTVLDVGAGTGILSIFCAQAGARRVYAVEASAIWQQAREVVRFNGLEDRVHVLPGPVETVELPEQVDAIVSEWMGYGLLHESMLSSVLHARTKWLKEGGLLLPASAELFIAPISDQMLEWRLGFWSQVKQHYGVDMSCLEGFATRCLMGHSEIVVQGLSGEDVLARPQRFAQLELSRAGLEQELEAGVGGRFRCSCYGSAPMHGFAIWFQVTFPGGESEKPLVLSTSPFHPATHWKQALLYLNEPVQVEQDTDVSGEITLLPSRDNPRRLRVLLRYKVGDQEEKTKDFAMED
Checkbox rule: IC50 lower than 9 µM = true; IC50 not lower than 9 µM = false.

CN(CCN)Cc1ccccc1 :: true
CNCCN1CCCC1 :: true
Cc1cc(C)cc(Oc2ccc(CNC(=O)[C@H](C)N)cc2C)c1 :: true
C[C@H](N)C(=O)NCc1cccnc1Oc1ccc(F)cc1F :: false
CCC(c1ccc(OC)cc1)N(C)CCN (stereo unspecified) :: false

---

biological target: Protein arginine N-methyltransferase 8 (Homo sapiens, UniProt Q9NR22); assay: Inhibition of PRMT8 (unknown origin)
Sequence (Q9NR22 whole entry): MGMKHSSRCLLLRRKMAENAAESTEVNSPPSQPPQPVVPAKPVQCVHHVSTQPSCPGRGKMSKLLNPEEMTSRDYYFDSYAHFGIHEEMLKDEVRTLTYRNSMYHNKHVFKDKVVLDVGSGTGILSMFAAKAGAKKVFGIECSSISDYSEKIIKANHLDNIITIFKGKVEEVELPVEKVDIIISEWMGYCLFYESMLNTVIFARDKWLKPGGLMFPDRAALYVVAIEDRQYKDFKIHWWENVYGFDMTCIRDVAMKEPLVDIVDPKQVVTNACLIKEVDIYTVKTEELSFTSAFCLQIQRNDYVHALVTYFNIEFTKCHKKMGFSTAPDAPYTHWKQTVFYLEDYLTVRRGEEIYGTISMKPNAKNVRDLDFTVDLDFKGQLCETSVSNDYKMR
measured endpoint: IC50

C[C@H](N)C(=O)NCc1cccnc1Oc1ccc(F)cc1F :: Not Active
C[C@H](N)C(=O)NCc1cccnc1N(C)Cc1ccccc1 :: Not Active
NCCN1CCC(c2nnc(Cn3ccnc3)n2C2CC2)CC1 :: Not Active
NCC(=O)NCCc1ccccc1 :: Not Active
CCC(c1ccc(OC)cc1)N(C)CCN (stereo not drawn) :: Not Active
CC(N)C(=O)NCc1ccccc1 (stereo not drawn) :: Not Active
CC(Cc1c[nH]c2ccccc12)NC(=O)CN (stereo not drawn) :: Not Active
Cc1cc(OCCNCCN)ccc1C(C)C :: Not Active

---

target: Histone-arginine methyltransferase CARM1 (Homo sapiens, UniProt Q86X55); test: Inhibition of full-length Halo-tagged human CARM1 (1 to 608 residues) expressed in 293-F cells using [3H]-SAM and biotinylated histone peptides by scintillation proximity based radiometric assay; type: cell-based; details: read-out: IC50
Sequence (Q86X55 whole entry, the tested form may be a part): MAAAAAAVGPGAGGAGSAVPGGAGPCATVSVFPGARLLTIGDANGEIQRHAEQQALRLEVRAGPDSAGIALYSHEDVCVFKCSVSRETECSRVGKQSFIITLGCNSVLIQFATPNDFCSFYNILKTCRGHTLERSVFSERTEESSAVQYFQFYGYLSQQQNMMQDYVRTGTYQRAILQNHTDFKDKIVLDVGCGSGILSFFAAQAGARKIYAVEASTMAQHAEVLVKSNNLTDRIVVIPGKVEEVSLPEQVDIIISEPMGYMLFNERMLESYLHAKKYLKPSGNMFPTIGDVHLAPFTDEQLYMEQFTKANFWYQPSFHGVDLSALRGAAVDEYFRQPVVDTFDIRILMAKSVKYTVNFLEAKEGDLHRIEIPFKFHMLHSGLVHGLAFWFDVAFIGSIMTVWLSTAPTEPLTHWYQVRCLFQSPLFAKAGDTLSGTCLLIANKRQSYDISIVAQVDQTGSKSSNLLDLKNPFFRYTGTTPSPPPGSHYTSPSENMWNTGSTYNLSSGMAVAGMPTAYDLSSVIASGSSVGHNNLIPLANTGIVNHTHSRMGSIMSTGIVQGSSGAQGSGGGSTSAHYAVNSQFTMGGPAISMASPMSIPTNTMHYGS
IC50 values for the molecules below.
measured endpoint: IC50

C[C@H](N)C(=O)NCc1cccnc1N(C)Cc1ccccc1 :: > 30 µM
CC(N)C(=O)NCc1ccccc1 (stereo not given) :: > 20 µM
C[C@@H](N)C(=O)NCc1cccnc1Oc1ccc(F)cc1F :: > 40 µM
NCCN1CCC(c2nnc(Cn3ccnc3)n2C2CC2)CC1 :: > 50 µM
CC(Cc1c[nH]c2ccccc12)NC(=O)CN (stereo not given) :: > 65 µM
